These measurements were taken from the Human Domainome abundance scans (Beltran et al. 2025).

B1: Triacylglycerol hydrolase DDHD2, residues 389 to 447; numbered along this chain, O94830 (parent)
chain: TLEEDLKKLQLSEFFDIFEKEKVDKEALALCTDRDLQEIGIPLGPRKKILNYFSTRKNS

Variants of: B1
EXPERIMENT NOTES: abundance fitness (aPCA) (normalised: wild type 0, dead -1); higher = more abundant; growth selection in yeast, the domain comes from the species named
SETTINGS: Homo sapiens
Decision: abundance fitness >= -0.4 yields TRUE, all other cases yield FALSE.

VARIANT	CLASS NAME
G44Q	TRUE
C31P	TRUE
R46M	FALSE
I39T	TRUE
S12Y	TRUE
G40W	FALSE
L43T	TRUE
I41A	FALSE
L2A	FALSE
K48V	TRUE
K25S	TRUE
F15P	FALSE
V23R	TRUE
P45E	TRUE
I39Q	TRUE
I39R	TRUE
R34I	TRUE
K20M	TRUE
S59F	TRUE
F14Y	FALSE
I41C	FALSE
